Origin of values: paper PMC4076061

Molecular target: cystic fibrosis transmembrane conductance regulator (CFTR) (Mus musculus, UniProt P26361)
Sequence (P26361 whole entry): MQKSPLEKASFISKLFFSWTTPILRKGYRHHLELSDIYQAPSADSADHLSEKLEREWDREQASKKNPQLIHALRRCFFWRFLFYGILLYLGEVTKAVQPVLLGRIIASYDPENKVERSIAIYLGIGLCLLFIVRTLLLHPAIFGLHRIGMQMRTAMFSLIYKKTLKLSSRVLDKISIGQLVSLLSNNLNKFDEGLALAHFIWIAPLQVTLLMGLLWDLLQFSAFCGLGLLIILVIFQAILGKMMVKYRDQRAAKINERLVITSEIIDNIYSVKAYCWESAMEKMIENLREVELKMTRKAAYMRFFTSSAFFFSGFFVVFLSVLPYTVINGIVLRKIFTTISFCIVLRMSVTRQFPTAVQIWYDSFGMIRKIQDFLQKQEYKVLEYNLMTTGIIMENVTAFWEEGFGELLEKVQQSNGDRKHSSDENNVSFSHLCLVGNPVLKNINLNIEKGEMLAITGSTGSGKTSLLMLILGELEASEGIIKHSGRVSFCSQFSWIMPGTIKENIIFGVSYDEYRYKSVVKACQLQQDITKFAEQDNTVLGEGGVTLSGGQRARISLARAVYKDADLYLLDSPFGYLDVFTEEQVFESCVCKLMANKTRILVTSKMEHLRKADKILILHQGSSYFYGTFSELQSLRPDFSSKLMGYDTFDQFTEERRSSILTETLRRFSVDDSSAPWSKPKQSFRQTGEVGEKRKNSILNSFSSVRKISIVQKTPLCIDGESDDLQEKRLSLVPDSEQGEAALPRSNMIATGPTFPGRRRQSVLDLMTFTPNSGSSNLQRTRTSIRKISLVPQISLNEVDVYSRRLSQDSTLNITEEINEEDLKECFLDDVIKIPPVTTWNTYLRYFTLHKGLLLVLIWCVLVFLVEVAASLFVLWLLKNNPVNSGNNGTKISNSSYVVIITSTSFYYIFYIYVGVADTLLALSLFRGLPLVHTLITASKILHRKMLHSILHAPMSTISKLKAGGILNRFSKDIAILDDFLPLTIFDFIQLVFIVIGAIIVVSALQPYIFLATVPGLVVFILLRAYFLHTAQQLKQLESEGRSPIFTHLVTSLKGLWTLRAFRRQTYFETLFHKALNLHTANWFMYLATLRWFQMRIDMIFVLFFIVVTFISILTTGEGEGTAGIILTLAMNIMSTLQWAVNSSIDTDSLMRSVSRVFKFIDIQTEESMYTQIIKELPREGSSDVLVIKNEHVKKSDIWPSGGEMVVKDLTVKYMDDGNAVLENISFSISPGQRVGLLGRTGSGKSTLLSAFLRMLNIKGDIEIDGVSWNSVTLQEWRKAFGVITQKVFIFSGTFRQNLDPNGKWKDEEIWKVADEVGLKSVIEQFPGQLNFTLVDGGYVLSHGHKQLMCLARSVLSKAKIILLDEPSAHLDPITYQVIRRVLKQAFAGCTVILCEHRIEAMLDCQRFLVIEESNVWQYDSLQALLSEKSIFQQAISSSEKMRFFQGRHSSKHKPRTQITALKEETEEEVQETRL
pIC50: −log10 of the molar value.
MEASURED ENDPOINT: pIC50

stdin: Please report the measured pIC50 for "O=C(O)c1ccccc1Nc1ccccc1"
stdout: ~3.76
